molecular target: Tyrosyl-tRNA synthetase, putative (Trypanosoma cruzi (strain CL Brener)) (UniProt Q4DSP6); assay: Trypanosoma cruzi tyrosyl tRNA synthetase (TcYRS) SOP; assay type: functional; set-up: scale not given: direction of the effect not stated beside the values; details: 30 µM
Sequence (Q4DSP6 as listed by the source): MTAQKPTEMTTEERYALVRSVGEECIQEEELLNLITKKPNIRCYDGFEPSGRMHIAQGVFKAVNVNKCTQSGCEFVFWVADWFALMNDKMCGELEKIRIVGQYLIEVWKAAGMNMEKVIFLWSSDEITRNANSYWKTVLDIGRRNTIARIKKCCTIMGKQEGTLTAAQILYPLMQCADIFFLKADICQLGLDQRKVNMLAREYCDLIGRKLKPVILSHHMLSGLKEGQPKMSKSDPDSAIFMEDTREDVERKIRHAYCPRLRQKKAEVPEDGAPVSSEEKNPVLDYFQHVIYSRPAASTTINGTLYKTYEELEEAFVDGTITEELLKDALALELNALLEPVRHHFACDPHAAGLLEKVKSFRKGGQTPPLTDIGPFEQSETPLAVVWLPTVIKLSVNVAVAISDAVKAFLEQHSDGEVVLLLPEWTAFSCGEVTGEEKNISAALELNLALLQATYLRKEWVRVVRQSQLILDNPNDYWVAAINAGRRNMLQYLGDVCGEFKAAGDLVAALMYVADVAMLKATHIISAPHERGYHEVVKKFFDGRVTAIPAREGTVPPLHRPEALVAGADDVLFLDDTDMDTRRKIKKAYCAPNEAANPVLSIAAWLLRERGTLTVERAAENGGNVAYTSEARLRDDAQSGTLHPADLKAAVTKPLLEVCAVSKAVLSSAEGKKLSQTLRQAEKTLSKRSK
Where Percent Effect equals or exceeds 10%, the correct label is condition met; where it does not, the label is condition not met.

> print(dat)
                                   compound                                 tested.on     classification
1               CCOc1ccc(Cl)c(C(=O)N(C)C)n1  Tyrosyl-tRNA synthetase, putative (Trypanosoma cruzi (strain CL Brener)) (UniProt Q4DSP6)      condition met
2  Cc1ccc(NC(=O)C2CSCN2C(=O)c2cnccn2)c(C)c1 (stereo not given)  Tyrosyl-tRNA synthetase, putative (Trypanosoma cruzi (strain CL Brener)) (UniProt Q4DSP6)      condition met
3  Cn1cc(NC(=O)N2CCC(NS(C)(=O)=O)CC2)ccc1=O  Tyrosyl-tRNA synthetase, putative (Trypanosoma cruzi (strain CL Brener)) (UniProt Q4DSP6)  condition not met
4  CC(C)(C#N)C(=O)N1CCCC(c2cc(C(F)(F)F)[nH]n2)C1 (stereo not given)  Tyrosyl-tRNA synthetase, putative (Trypanosoma cruzi (strain CL Brener)) (UniProt Q4DSP6)      condition met
5  O=S(=O)(C1CC1)N1CCC2(CC1)CC(Oc1cccnc1)CO2 (stereo not given)  Tyrosyl-tRNA synthetase, putative (Trypanosoma cruzi (strain CL Brener)) (UniProt Q4DSP6)  condition not met
6  Cc1nc(CN2CCCC2c2ccsc2)nc2ccccc12 (stereo not given)  Tyrosyl-tRNA synthetase, putative (Trypanosoma cruzi (strain CL Brener)) (UniProt Q4DSP6)      condition met

For this compound, is measured Percent Effect 10% or higher? CC(C(=O)NCCCn1ccnc1)n1cc(Br)cn1 (stereo not given)
condition met

What do you have for "CC(C)n1cc(C(=O)N2Cc3ccccc3OC3(CCOCC3)C2)cn1" ?
condition not met

What do you have for "CC(C)Cc1ccc(S(=O)(=O)Nc2ccc(=O)n(C)c2)cc1" ?
condition met

What do you have for "CC(C)OCCC(=O)N(C)CCCc1cc(-c2ccccc2)no1" ?
condition not met

What do you have for Cc1nccn1-c1cc(CNC(=O)CCC2CCCO2)ccn1 (stereo not given) ?
condition met

What do you have for "CCc1nnc2n1CCN(Cc1ccc(C(=O)N3CCCC3)cc1)C2" ?
condition met
